The measurements presented in this section are drawn from ChEMBL document CHEMBL1201862.

- Test system: CCRF-CEM
- experiment-description: NCI tumour cell line growth inhibition, 48 h
Activity calls are given as the source filed them. Rule as the data show it: active = GI50 up to about 1.1 µM and inactive = higher.
measure: GI50

- compound: "CCCCc1ccc(Nc2nc(N)c3ncn(COCCO)c3n2)cc1"
  assayed-target: "CCRF-CEM"
  measure: "GI50"
  reading: "26.4 µM (inactive)"
- compound: "CC(=O)Nc1c(S(=O)(=O)c2ccccc2)c(C)c(C)n1Cc1ccccc1"
  assayed-target: "CCRF-CEM"
  measure: "GI50"
  reading: "> 100 µM (inactive)"
- compound: "O=C1OCC2=Nc3cccc4cccc(c34)N12"
  assayed-target: "CCRF-CEM"
  measure: "GI50"
  reading: "49.8 µM (inactive)"
- compound: "COC(=O)C1=C(OC(=O)/C(=C/c2ccccc2)c2ccc(OC)cc2)C(C(=O)OC)[C@@]2(O)[C@@H](C(=O)OC)[C@H](C)C[C@@H]1[C@@H]2C(=O)OC (stereo partly specified)"
  assayed-target: "CCRF-CEM"
  measure: "GI50"
  reading: "> 100 µM (inactive)"
- compound: "COc1ccc2nc3n(c2c1)C(c1c(Cl)cccc1Cl)SC3 (stereo unspecified)"
  assayed-target: "CCRF-CEM"
  measure: "GI50"
  reading: "> 100 µM (inactive)"
- compound: "CC(C)OC(=O)[C@H]1ON2O[C@H](O[C@@H]3CCCC[C@H]3c3ccccc3)C([Si](C)(C)c3ccccc3)[C@H]3OC(=O)[C@@H]1C32 (stereo partly specified)"
  assayed-target: "CCRF-CEM"
  measure: "GI50"
  reading: "94 µM (inactive)"
- compound: "CC1(C(=O)O)CCCC1C(=O)O (stereo unspecified)"
  assayed-target: "CCRF-CEM"
  measure: "GI50"
  reading: "> 100 µM (inactive)"
- compound: "NCCC1([N+](=O)[O-])CCNCC1"
  assayed-target: "CCRF-CEM"
  measure: "GI50"
  reading: "> 100 µM (inactive)"
- compound: "COC(=O)[C@H]1C=C[C@@H](C)n2c(=O)c3cc4ccccc4cc3c(=O)n21"
  assayed-target: "CCRF-CEM"
  measure: "GI50"
  reading: "> 100 µM (inactive)"
- compound: "CCCC1C(CC)C(NC)C(C#N)(C#N)C1(C#N)C#N (stereo unspecified)"
  assayed-target: "CCRF-CEM"
  measure: "GI50"
  reading: "13.1 µM (inactive)"
- compound: "Cc1cc(-c2nc3c(O)cccc3s2)ccc1N"
  assayed-target: "CCRF-CEM"
  measure: "GI50"
  reading: "27.3 µM (inactive)"

----------
- Tested on: IGROV-1
- experiment-description: NCI tumour cell line growth inhibition, 48 h
Calls of active or inactive are those of the source. No stated cut-off is given here; in the data, active = GI50 up to about 1.1 µM and inactive = higher.
Outcomes: class 1 for active, class 0 for inactive

- compound: "COc1cc2c(cc1OC)-c1[nH]c3ccc(C#N)cc3c1CC(=O)N2"
  assigned-class: "class 1"
- compound: "OCCNCCOc1ccc(/C(=C(/Cl)c2ccccc2)c2ccccc2)cc1"
  assigned-class: "class 0"
- compound: "CCCCC(/C=C\\COC1CCCCO1)=C/C(=O)OCC (stereo not given)"
  assigned-class: "class 0"
- compound: "COC(=O)[C@H]1N[C@@H](C(=O)OC)C23CCC[C@H]2CC[C@]1(C(OC)OC)C3"
  assigned-class: "class 0"
- compound: "Cc1cc2c(O)c(c1)CN(Cc1ccccc1)Cc1cc(C)cc(c1O)CN(Cc1ccccc1)Cc1cc(C)cc(c1O)CN(Cc1ccccc1)C2"
  assigned-class: "class 0"
